system: HeLa Kyoto; assay: melting temperature (median over replicates), in situ; higher = more thermally stable; conditions: cell cycle stage: mitosis;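 note: HeLa Kyoto cells synchronized by double thymidine or nocodazole block, proteins quantified by TMT10plex mass spectrometry, three independent biological replicates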
quantity_measured: melting temperature (°C)

biopolymer_sequence | target_system | measured_number
MSDLLLLGLIGGLTLLLLLTLLAFAGYSGLLAGVEVSAGSPPIRNVTVAYKFHMGLYGETGRLFTESCSISPKLRSIAVYYDNPHMVPPDKCRCAVGSILSEGEESPSPELIDLYQKFGFKVFSFPAPSHVVTATFPYTTILSIWLATRRVHPALDTYIKERKLCAYPRLEIYQEDQIHFMCPLARQGDFYVPEMKETEWKWRGLVEAIDTQVDGTGADTMSDTSSVSLEVSPGSRETSAATLSPGASSRGWDDGDTRSEHSYSESGASGSSFEELDLEGEGPLGESRLDPGTEPLGTTKWLWEPTAPEKGKE [TEX264] | HeLa Kyoto | 51.2
MPLGLGRRKKAPPLVENEEAEPGRGGLGVGEPGPLGGGGSGGPQMGLPPPPPALRPRLVFHTQLAHGSPTGRIEGFTNVKELYGKIAEAFRLPTAEVMFCTLNTHKVDMDKLLGGQIGLEDFIFAHVKGQRKEVEVFKSEDALGLTITDNGAGYAFIKRIKEGSVIDHIHLISVGDMIEAINGQSLLGCRHYEVARLLKELPRGRTFTLKLTEPRKAFDMISQRSAGGRPGSGPQLGTGRGTLRLRSRGPATVEDLPSAFEEKAIEKVDDLLESYMGIRDTELAATMVELGKDKRNPDELAEALDERLGDFAFPDEFVFDVWGAIGDAKVGRY [GIPC1] | HeLa Kyoto | 48.7
MASMAAAIAASRSAVMSGNRPLDDRERKRFTYFSSLSPMARKIMQDKEKIREKYGPEWARLPPAQQDEIIDRCLVGPRAPAPRDPGDSEELTRFPGLRGPTGQKVVRFGDEDLTWQDEHSAPFSWETKSQMEFSISALSIQEPSNGTAASEPRPLSKASQGSQALKSSQGSRSSSLDALGPTRKEEEASFWKINAERSRGEGPEAEFQSLTPSQIKSMEKGEKVLPPCYRQEPAPKDREAKVERPSTLRQEQRPLPNVSTERERPQPVQAFSSALHEAAPSQLEGKLPSPDVRQDDGEDTLFSEPKFAQVSSSNVVLKTGFDFLDNW [C1ORF198] | HeLa Kyoto | 53.2
MLSESSSFLKGVMLGSIFCALITMLGHIRIGHGNRMHHHEHHHLQAPNKEDILKISEDERMELSKSFRVYCIILVKPKDVSLWAAVKETWTKHCDKAEFFSSENVKVFESINMDTNDMWLMMRKAYKYAFDKYRDQYNWFFLARPTTFAIIENLKYFLLKKDPSQPFYLGHTIKSGDLEYVGMEGGIVLSVESMKRLNSLLNIPEKCPEQGGMIWKISEDKQLAVCLKYAGVFAENAEDADGKDVFNTKSVGLSIKEAMTYHPNQVVEGCCSDMAVTFNGLTPNQMHVMMYGVYRLRAFGHIFNDALVFLPPNGSDND [C1GALT1C1] | HeLa Kyoto | 53.4
MYYKFSGFTQKLAGAWASEAYSPQGLKPVVSTEAPPIIFATPTKLTSDSTVYDYAGKNKVPELQKFFQKADGVPVYLKRGLPDQMLYRTTMALTVGGTIYCLIALYMASQPKNK [COX7A2L] | HeLa Kyoto | 52.3
MAGDSEQTLQNHQQPNGGEPFLIGVSGGTASGKSSVCAKIVQLLGQNEVDYRQKQVVILSQDSFYRVLTSEQKAKALKGQFNFDHPDAFDNELILKTLKEITEGKTVQIPVYDFVSHSRKEETVTVYPADVVLFEGILAFYSQEVRDLFQMKLFVDTDADTRLSRRVLRDISERGRDLEQILSQYITFVKPAFEEFCLPTKKYADVIIPRGADNLVAINLIVQHIQDILNGGPSKRQTNGCLNGYTPSRKRQASESSSRPH [UCK2] | HeLa Kyoto | 52.9
MSLLLLLLLVSYYVGTLGTHTEIKRVAEEKVTLPCHHQLGLPEKDTLDIEWLLTDNEGNQKVVITYSSRHVYNNLTEEQKGRVAFASNFLAGDASLQIEPLKPSDEGRYTCKVKNSGRYVWSHVILKVLVRPSKPKCELEGELTEGSDLTLQCESSSGTEPIVYYWQRIREKEGEDERLPPKSRIDYNHPGRVLLQNLTMSYSGLYQCTAGNEAGKESCVVRVTVQYVQSIGMVAGAVTGIVAGALLIFLLVWLLIRRKDKERYEEEERPNEIREDAEAPKARLVKPSSSSSGSRSSRSGSSSTRSTANSASRSQRTLSTDAAPQPGLATQAYSLVGPEVRGSEPKKVHHANLTKAETTPSMIPSQSRAFQTV [CLMP] | HeLa Kyoto | 55.4
MATHGQTCARPMCIPPSYADLGKAARDIFNKGFGFGLVKLDVKTKSCSGVEFSTSGSSNTDTGKVTGTLETKYKWCEYGLTFTEKWNTDNTLGTEIAIEDQICQGLKLTFDTTFSPNTGKKSGKIKSSYKRECINLGCDVDFDFAGPAIHGSAVFGYEGWLAGYQMTFDSAKSKLTRNNFAVGYRTGDFQLHTNVNDGTEFGGSIYQKVCEDLDTSVNLAWTSGTNCTRFGIAAKYQLDPTASISAKVNNSSLIGVGYTQTLRPGVKLTLSALVDGKSINAGGHKVGLALELEA [VDAC2] | HeLa Kyoto | 60.3
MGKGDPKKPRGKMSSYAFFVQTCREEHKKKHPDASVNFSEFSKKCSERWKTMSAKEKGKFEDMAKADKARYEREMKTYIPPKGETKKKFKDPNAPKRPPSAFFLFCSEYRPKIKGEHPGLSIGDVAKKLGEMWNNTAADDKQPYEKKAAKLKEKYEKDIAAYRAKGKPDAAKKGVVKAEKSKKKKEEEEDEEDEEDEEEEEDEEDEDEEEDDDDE [HMGB1] | HeLa Kyoto | 54.4
MSHTEVKLKIPFGNKLLDAVCLVPNKSLTYGIILTHGASGDMNLPHLMSLASHLASHGFFCLRFTCKGLNIVHRIKAYKSVLNYLKTSGEYKLAGVFLGGRSMGSRAAASVMCHIEPDDGDDFVRGLICISYPLHHPKQQHKLRDEDLFRLKEPVLFVSGSADEMCEKNLLEKVAQKMQAPHKIHWIEKANHSMAVKGRSTNDVFKEINTQILFWIQEITEMDKKCH [TEX30] | HeLa Kyoto | 49
MYLQVETRTSSRLHLKRAPGIRSWSLLVGILSIGLAAAYYSGDSLGWKLFYVTGCLFVAVQNLEDWEEAIFDKSTGKVVLKTFSLYKKLLTLFRAGHDQVVVLLHDVRDVSVEEEKVRYFGKGYMVVLRLATGFSHPLTQSAVMGHRSDVEAIAKLITSFLELHCLESPTELSQSSDSEAGDPASQS [C17ORF62] | HeLa Kyoto | 55.1
